Entry source: paper PMC6271349

In this section, each of the molecules is paired with its reported IC50.
TEST_TARGET: Human recombinant Monoamine Oxidase A (Homo sapiens, UniProt P21397)
Construct: purchased Sigma Aldrich M7316
Sequence (P21397 1-527): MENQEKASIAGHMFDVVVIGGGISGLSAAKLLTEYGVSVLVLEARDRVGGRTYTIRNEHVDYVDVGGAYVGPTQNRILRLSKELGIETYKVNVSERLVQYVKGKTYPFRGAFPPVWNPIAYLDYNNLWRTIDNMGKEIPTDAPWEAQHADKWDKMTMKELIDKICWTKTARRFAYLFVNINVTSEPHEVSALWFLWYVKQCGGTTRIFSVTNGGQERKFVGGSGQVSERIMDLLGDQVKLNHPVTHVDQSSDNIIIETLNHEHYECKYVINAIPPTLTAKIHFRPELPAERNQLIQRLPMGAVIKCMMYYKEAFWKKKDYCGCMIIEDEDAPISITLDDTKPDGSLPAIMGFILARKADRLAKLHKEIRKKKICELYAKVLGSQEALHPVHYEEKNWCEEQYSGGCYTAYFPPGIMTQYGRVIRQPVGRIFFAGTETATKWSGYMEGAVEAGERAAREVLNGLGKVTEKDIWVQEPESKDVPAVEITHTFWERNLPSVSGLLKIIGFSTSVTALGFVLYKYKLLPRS
ASSAY_PROTOCOL: MAOs inhibitory assay (fluorescence-based microplate), MAO-A
Assay type: biochemical
CONDITION_SUMMARY: recombinant enzyme; inhibitor incubated 37 °C 3 h, borate buffer pH 8.4; mean IC50; read-out: IC50 (μM) MAO-A
Method: All of these compounds were evaluated for their inhibitory abilities towards MAOs. The inhibition activities against MAO-A and MAO-B of the synthesized compounds were investigated by our reported method. Silica gel (100–200 mesh, Qingdao Haiyang Chemical Co., Qingdao, China) was used for flash column chromatography. Analytical thin-layer chromatography was performed with GF254 silica gel. ^1H-NMR spectra were recorded on a Bruker Avance 300 MHz apparatus. […]
Number only, in µM; omit the unit.

These solved cases illustrate the format of a correct answer.
>>> print(df.to_string())
                                   molecule  measure_unit  value
0    NC(=O)COc1ccccc1C1=NCCN1 [Compound 20]            µM    186
1     C#CCN=Cc1ccccc1OCC(N)=O [Compound 25]            µM  0.068
2  NC(=O)COc1ccc(C=NCc2ccccc2)cc1 [Compound 23]            µM     96

IC50 reading for NC(=O)COc1ccc(Cl)cc1 [Compound 4] : 490

IC50 reading for NC(=O)COc1ccccc1Cl [Compound 5] : 98

IC50 reading for CC(C)(C)OC(=O)Nc1ccc(OCC(N)=O)cc1 [Compound 15] : 196

IC50 reading for Cc1ccc(OCC(N)=O)cc1C [Compound 8] : 113
